Values from patent US20240115557A1

Recorded Auto Zscore Rep 1 by entry
SYSTEM: UniProtKB J7RUA5
PROTOCOL_DESCRIPTION: Strand displacement assay, SaCas9 primary screen
Type: biochemical
REPORTED_CONDITIONS: SaCas9 primary screen, Auto Zscore, replicate 1

Please review the following examples before continuing.
Cc1cc(C)c(S(=O)(=O)Nc2cnc(N3CCCC3)c(C(=O)O)c2)c(C)c1: 0.8114
Cc1nnc(NC(=O)CSc2ccc3nnc(-c4cccc(F)c4)n3n2)s1: −0.06844
Nc1c(C(=O)N2CCCC2)sc(=S)n1Cc1ccccc1: 1.188
c1ccc(Cc2nn3c(-c4cccnc4)nnc3s2)cc1: 0.2456
Cc1n[nH]c2c1C(c1ccc(O)c(O)c1)CC(=O)N2 (stereo not drawn): −0.203
O=C1CC(NC(=O)c2ccc(Cl)cc2)C(=O)N1 (stereo not drawn): 0.257
CCN(Cc1ccccc1)c1ccc(NS(C)(=O)=O)cc1C(=O)O: 0.01198
CN(C)S(=O)(=O)Nc1cnc(N2CCC(CCN3CCCCC3)CC2)c(C(=O)O)c1: −1.575

Attention now turns to another entry.
Give the measured Auto Zscore Rep 1 of `Cc1ccccc1OCc1nn2c(C(C)C)nnc2s1` .
−0.2032

---

SYSTEM: UniProtKB Q99ZW2
PROTOCOL_DESCRIPTION: eGFP disruption assay, SpCas9, U2OS.eGFP.PEST cells
Assay type: cell-based
REPORTED_CONDITIONS: replicate 1
Lab note: cut-off is -0.2. Strictly less in Normalized Z rep1 is met. Exactly -0.2 or more is not met.

NC(=O)c1sc(=S)n2c1[nH]c(=O)c1cc(Cl)ccc12 [Compound F083-0005]: met
COc1ccc(Cc2nn3c(-c4cccnc4)nnc3s2)cc1OC [Compound D727-0069]: met
CN(C)S(=O)(=O)Nc1ccc(N2CCC(C(N)=O)(N3CCCCC3)CC2)c(C(=O)O)c1 [Compound F294-0183]: met

Normalized Z rep1 under -0.2? Item: Clc1cccc(-c2nnc3sc(-c4ccc5ccccc5n4)nn23)c1 [Compound D727-0890]
not met

Normalized Z rep1 under -0.2? Item: Cc1ccc(-c2nc(CN3CCCC(C(=O)Nc4cc(C)ccc4O)C3)no2)cc1 (centres unmarked) [Compound J065-2258]
not met

Normalized Z rep1 under -0.2? Item: c1ccc(-c2nnc3sc(-c4ccc5c(c4)OCO5)nn23)nc1 [Compound D727-0536]
not met

Normalized Z rep1 under -0.2? Item: CN(C)S(=O)(=O)Nc1ccc(N2CCCC(CN3CCCC3)C2)c(C(=O)O)c1 (centres unmarked) [Compound F294-0983]
met

Normalized Z rep1 under -0.2? Item: O=C(NC1CCCC1)c1cccc(Oc2cc(-c3ccccc3)ncn2)c1 [Compound L663-1002]
met

Normalized Z rep1 under -0.2? Item: Cl.Cl.Fc1cc(-c2cccc3ncc(-c4cnn(C5CCNCC5)c4)nc23)cc(F)c1CN1CCOCC1 [Compound S2686]
met

Normalized Z rep1 under -0.2? Item: Brc1cccc(-c2nn3c(-c4cccnc4)nnc3s2)c1 [Compound D727-0051]
not met

Normalized Z rep1 under -0.2? Item: COc1ccc(C2CNC(=O)C2)cc1OC1CCCC1 (centres unmarked) [Compound S2127]
not met

---

SYSTEM: SpCas9 (Streptococcus pyogenes serotype M1)
PROTOCOL_DESCRIPTION: HiBiT knock-in assay, SpCas9, HEK293T cells
Assay type: cell-based
REPORTED_CONDITIONS: EC50 in HiBit knockin assay, HEK293T, SpCas9 plasmid, sgRNA plasmid and ssODN, 0.06 uM to 20 uM, 24 h (FIG. 44D)
Method: Primary and secondary screening. The primary screen assayed a selection of unique chemical scaffolds derived from commercially available compounds and known bioactive molecular libraries (Table 7). Auto-fluorescent compounds were removed by a counter screen. […] In this assay, any compound that inhibited SpCas9 would rescue the loss of eGFP fluorescence. […] As a counter-screen to remove false positives caused by cell death (viability <80%), the cell viability was measured after incubation. […]
RECORDED_METRIC: EC50
I'd appreciate it if you wrote the number followed by its unit.

Recorded EC50 for O=C(CCS(=O)(=O)c1ccc(Cl)cc1)Nc1nc(-c2ccncc2)cs1 [BRD7586] with SpCas9 (Streptococcus pyogenes serotype M1), please?
5.04 µM

---

SYSTEM: SpCas9 (Streptococcus pyogenes serotype M1)
PROTOCOL_DESCRIPTION: eGFP disruption assay, SpCas9, U2OS.eGFP.PEST cells
Type: cell-based
REPORTED_CONDITIONS: replicate 1
Values of Z score Rep1 greater than or equal to -2 map to rule met; values below map to rule not met.

Look over these answered cases.
CN(C)c1cccc(-c2nn3c(-c4ccc5ccccc5c4)nnc3s2)c1: rule met
O=C(NCC1CCCO1)c1ccc(Oc2ccnc(-c3ccc(F)cc3)n2)cc1 (centres unmarked): rule met
CCCCNC(=O)CN1CCN(c2ccc(C(=O)O)cc2NC(=O)c2ccccc2Cl)CC1: rule not met
c1cncc(-c2nnc3sc(Cc4ccc5c(c4)OCCO5)nn23)c1: rule met

Please indicate if the recorded Z score Rep1 for `Cc1nn(-c2ccccc2)c(C)c1CCc1nnc2sc(-c3ccccc3F)nn12` meets or exceeds -2.
rule met

Please indicate if the recorded Z score Rep1 for CN(C)S(=O)(=O)Nc1ccc(N2CCCC(CN3CCCC3)C2)c(C(=O)O)c1 (centres unmarked) meets or exceeds -2.
rule not met

Please indicate if the recorded Z score Rep1 for Cc1[nH]nc2ccc(-c3cncc(OCC(N)Cc4ccccc4)c3)cc12 (centres unmarked) meets or exceeds -2.
rule not met

Please indicate if the recorded Z score Rep1 for Cc1ccc(C(C)NC(=O)c2cccc(Oc3cc(-c4ccccc4)ncn3)c2)cc1 (centres unmarked) meets or exceeds -2.
rule met

Please indicate if the recorded Z score Rep1 for `Cc1ccc(-c2nn3c(-c4cccnc4)nnc3s2)cc1` meets or exceeds -2.
rule not met

Please indicate if the recorded Z score Rep1 for `Fc1ccc(-c2nn3c(-c4cnccn4)nnc3s2)cc1Br` meets or exceeds -2.
rule met

Please indicate if the recorded Z score Rep1 for `NC(=O)c1sc(=S)n2c1[nH]c(=O)c1cc(Cl)ccc12` meets or exceeds -2.
rule met

---

SYSTEM: UniProtKB Q99ZW2
PROTOCOL_DESCRIPTION: eGFP disruption assay, SpCas9, U2OS.eGFP.PEST cells
Assay type: cell-based
REPORTED_CONDITIONS: replicate 2, raw readout
RECORDED_METRIC: SpCas9 eGFP disruption Rep2
When you answer, write just the number.

Please review the following examples before continuing.
Cc1cccc(C(=O)Nc2ccccc2Sc2cc(C)nc3ncnn23)c1: 57.92
CC(C)NC(=O)CN1CCN(c2ccc(C(=O)O)cc2NC(=O)c2ccccc2Cl)CC1: 57.208
CN(C)S(=O)(=O)Nc1ccc(N2CCC(C(N)=O)(N3CCCCC3)CC2)c(C(=O)O)c1: 54.549
CCCCNC(=O)CN1CCN(c2ccc(C(=O)O)cc2NC(=O)c2ccccc2Cl)CC1: 61.703
CS(=O)(=O)Nc1cnc(N2CCC(CCN3CCOCC3)CC2)c(C(=O)O)c1: 60.078

Give the measured SpCas9 eGFP disruption Rep2 of `O=C(NCc1ccc(F)cc1)c1ccc(Oc2ccnc(-c3cccc(F)c3)n2)cc1` .
74.871

---

SYSTEM: SaCas9 (Staphylococcus aureus)
Sequence (J7RUA5 whole entry): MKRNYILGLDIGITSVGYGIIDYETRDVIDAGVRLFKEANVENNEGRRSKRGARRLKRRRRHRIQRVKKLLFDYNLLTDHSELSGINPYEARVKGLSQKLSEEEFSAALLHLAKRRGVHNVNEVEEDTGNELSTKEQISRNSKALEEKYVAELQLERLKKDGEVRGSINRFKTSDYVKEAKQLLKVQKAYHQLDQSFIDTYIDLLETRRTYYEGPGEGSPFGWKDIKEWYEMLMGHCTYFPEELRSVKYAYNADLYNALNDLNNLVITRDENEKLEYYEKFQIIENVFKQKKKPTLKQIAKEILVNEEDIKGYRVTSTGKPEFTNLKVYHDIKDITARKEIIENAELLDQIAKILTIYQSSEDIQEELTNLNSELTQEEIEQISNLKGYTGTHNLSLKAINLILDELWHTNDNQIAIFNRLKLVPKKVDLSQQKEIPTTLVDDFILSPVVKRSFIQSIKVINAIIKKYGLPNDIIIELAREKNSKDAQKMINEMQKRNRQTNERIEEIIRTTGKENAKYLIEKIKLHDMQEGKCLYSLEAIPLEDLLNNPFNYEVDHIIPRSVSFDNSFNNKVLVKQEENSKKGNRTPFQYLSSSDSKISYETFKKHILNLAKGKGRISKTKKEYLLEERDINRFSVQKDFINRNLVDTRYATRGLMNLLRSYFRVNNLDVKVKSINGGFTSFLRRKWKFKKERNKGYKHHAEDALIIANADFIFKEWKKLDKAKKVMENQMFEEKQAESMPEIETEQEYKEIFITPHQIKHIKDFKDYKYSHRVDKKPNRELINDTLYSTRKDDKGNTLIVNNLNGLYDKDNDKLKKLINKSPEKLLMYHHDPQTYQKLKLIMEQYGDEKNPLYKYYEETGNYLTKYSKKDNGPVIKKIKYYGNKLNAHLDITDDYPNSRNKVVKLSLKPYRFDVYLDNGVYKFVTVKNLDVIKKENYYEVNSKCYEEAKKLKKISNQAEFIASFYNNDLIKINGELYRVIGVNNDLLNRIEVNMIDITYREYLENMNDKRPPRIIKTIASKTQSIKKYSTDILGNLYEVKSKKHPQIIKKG
PROTOCOL_DESCRIPTION: Strand displacement assay, SaCas9 primary screen
Assay type: biochemical
REPORTED_CONDITIONS: SaCas9 primary screen, weaker potential hits, replicate 2
Recorded Normalized Zscore Rep 2 by entry

Give the measured Normalized Zscore Rep 2 of Cc1ccc(C)n1CCN1CCN(S(=O)(=O)c2ccccc2)CC1 [Cpd T0510-3387] .
0.1737

---

SYSTEM: SpCas9 (Streptococcus pyogenes serotype M1, UniProt Q99ZW2)
Sequence (Q99ZW2 whole entry): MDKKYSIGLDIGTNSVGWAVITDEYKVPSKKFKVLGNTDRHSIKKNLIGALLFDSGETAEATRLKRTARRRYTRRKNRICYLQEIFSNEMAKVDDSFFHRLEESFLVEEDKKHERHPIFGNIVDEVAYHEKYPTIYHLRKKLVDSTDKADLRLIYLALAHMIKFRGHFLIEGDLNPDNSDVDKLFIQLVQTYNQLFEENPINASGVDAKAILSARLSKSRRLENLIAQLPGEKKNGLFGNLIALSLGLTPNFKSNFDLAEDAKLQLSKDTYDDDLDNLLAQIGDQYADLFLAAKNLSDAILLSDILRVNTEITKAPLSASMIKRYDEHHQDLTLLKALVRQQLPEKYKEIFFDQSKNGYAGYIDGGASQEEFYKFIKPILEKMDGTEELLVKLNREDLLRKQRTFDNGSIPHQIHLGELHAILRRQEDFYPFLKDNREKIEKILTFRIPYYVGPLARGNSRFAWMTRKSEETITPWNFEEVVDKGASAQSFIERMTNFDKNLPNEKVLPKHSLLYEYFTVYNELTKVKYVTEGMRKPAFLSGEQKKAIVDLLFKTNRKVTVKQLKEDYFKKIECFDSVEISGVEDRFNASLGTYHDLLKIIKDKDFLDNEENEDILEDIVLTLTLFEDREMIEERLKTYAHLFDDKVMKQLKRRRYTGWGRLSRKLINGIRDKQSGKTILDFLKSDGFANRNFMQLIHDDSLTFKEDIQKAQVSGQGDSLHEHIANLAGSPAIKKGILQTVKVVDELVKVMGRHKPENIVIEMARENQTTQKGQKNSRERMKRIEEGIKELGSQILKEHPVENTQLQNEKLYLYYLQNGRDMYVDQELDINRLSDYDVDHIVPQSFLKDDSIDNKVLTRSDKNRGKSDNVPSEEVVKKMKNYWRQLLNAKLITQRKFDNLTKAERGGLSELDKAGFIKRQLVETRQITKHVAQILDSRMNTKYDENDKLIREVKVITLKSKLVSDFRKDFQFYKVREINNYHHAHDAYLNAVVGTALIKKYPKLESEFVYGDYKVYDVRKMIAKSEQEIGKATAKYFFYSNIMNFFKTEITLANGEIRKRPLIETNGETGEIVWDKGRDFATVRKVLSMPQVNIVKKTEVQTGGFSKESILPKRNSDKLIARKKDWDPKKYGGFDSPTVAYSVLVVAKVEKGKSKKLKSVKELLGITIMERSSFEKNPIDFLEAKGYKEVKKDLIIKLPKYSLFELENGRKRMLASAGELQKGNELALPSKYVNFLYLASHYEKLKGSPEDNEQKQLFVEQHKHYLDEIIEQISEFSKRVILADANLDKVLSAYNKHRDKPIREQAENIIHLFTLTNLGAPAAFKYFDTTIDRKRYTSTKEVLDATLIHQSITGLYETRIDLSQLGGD
PROTOCOL_DESCRIPTION: HiBiT knock-in assay, SpCas9, HEK293T cells
Format: cell-based
Method: Primary and secondary screening. The primary screen assayed a selection of unique chemical scaffolds derived from commercially available compounds and known bioactive molecular libraries (Table 7). Auto-fluorescent compounds were removed by a counter screen. […] In this assay, any compound that inhibited SpCas9 would rescue the loss of eGFP fluorescence. […] As a counter-screen to remove false positives caused by cell death (viability <80%), the cell viability was measured after incubation. […]
Recorded Hibit assay-% inhibition by entry
Reply with just the number (in %).

Give the measured Hibit assay-% inhibition of `CCN1C(=O)c2cccc3cccc1c23` .
18.06

Give the measured Hibit assay-% inhibition of `COc1ccc(Cc2nn3c(-c4cccnc4)nnc3s2)cc1OC` .
8.56

Give the measured Hibit assay-% inhibition of `Cc1nc2ccccc2c(C)c1CC(=O)N1CCN(c2ccc(O)cc2)CC1` .
36.6

---

SYSTEM: SpCas9 (Streptococcus pyogenes serotype M1, UniProt Q99ZW2)
PROTOCOL_DESCRIPTION: eGFP disruption assay, SpCas9, U2OS.eGFP.PEST cells
Format: cell-based
REPORTED_CONDITIONS: replicate 1
RECORDED_METRIC: Z score Rep1
When you answer, write just the number.

CC(C)CNC(=O)c1ccc(Oc2ccnc(-c3ccc(F)cc3)n2)cc1: 0.02
Clc1ccccc1OCc1nn2c(-c3ccccn3)nnc2s1: −2.83
CN(C)c1ccc(-c2nn3c(-c4ccc5ccccc5n4)nnc3s2)cc1: −0.83
CCn1c(CCC(=O)O)nc2cc(S(N)(=O)=O)ccc21: −1.27
O=C(NCc1ccc(F)cc1)c1ccc(Oc2ccnc(-c3cccc(F)c3)n2)cc1: −0.18

Give the measured Z score Rep1 of `CN(C)S(=O)(=O)Nc1ccc(N2CCC(C(N)=O)(N3CCCCC3)CC2)c(C(=O)O)c1` .
−2.37

Give the measured Z score Rep1 of `NC(=O)c1c(NC(=O)COCc2cc(-c3ccc4c(c3)OCO4)on2)sc2c1CCCC2` .
−1.37

Give the measured Z score Rep1 of COc1ccc(-c2cc3c(C)nc(N)nc3n(C3CCC(OCCO)CC3)c2=O)cn1 (centres unmarked) .
−4.92

Give the measured Z score Rep1 of `COCCCNC(=O)CN1CCN(c2ccc(C(=O)O)cc2NC(=O)c2ccccc2Cl)CC1` .
−1.88

Give the measured Z score Rep1 of `O=C(CSc1nccn1-c1cccc(F)c1)N1CCN(c2ccc(O)cc2)CC1` .
3.93
